B1: CPEB3 Ribozyme (parent)
chain: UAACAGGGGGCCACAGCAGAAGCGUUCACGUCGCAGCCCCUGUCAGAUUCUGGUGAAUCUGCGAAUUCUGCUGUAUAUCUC

- Variants of: B1
- METHOD DESCRIPTION: self-cleavage, relative activity (ratio to wild type); higher = more cleavage; in vitro, sequencing
# self-cleavage listing for each entry below
MEASURED METRIC: self-cleavage

>>> reading("U60C U69C")
0.37
>>> reading("U49A C71U")
0.26
>>> reading("U49C U58C")
0.24
>>> reading("A64G U69A")
0.38
>>> reading("A75G U76G")
0.43
>>> reading("A13U G55U")
0.83
>>> reading("C4G A57G")
0.98
>>> reading("G46A U76C")
0.19
>>> reading("A15U U80A")
1.01
>>> reading("G7U A20G")
0.27
>>> reading("C4G G55U")
1.12
